Measured protein stability index, listed per entry.
B1: C2CD2L (parent)
chain: EPAGSLRELGVWRSLLRLRATRAG

Variants of: B1
protocolSummary: protein stability index of a GFP-peptide fusion (GPS, HEK-293T) (PSI 1-6); higher = more stable;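 also: lentivirally expressed fusions sorted by FACS into six bins by GFP to DsRed ratio, PSI derived from sequencing read proportions per bin multiplied by bin number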
testSettings: c terminus: a fixed tail appended

input: Output measured protein stability index for this item: R7H
output: 2.67

input: Output measured protein stability index for this item: L9E
output: 3.3
